This collection of values is drawn from ChEMBL document CHEMBL5576112.

Measured GI50, listed per entry.
Test system: OVCAR-8
procedure details: Growth inhibition of human OVCAR-8 cells measured after 48 hrs by sulforhodamine B assay
Type: functional
endpoint: GI50 (nM)

mol: N#Cc1ccc(/C=N/NC(=O)c2[nH]c3ccc(Br)cc3c2-c2ccccc2)o1
units text: nM
numeric readout: 209
--
mol: O=C(N/N=C/c1ccc([N+](=O)[O-])o1)c1[nH]c2ccc(Br)cc2c1-c1ccccc1
units text: nM
numeric readout: 184
--
mol: O=C(N/N=C/c1ccco1)c1[nH]c2ccc(Br)cc2c1-c1ccccc1
units text: nM
numeric readout: 121
--
mol: COc1ccc(/C=N/NC(=O)c2[nH]c3ccc(Br)cc3c2-c2ccccc2)o1
units text: nM
numeric readout: 84.5

###

Measured log10(GI50), listed per entry.
System: NCI-H522
procedure details: Growth inhibition of human NCI-H522 cells measured after 48 hrs by sulforhodamine B assay
Assay type: functional
endpoint: log10(GI50) (log10 of the value in nM)

mol: N#Cc1ccc(/C=N/NC(=O)c2[nH]c3ccc(Br)cc3c2-c2ccccc2)o1
system under test: NCI-H522
endpoint: log10(GI50)
numeric readout: 1.92
//
mol: COc1ccsc1/C=N/NC(=O)c1[nH]c2ccc(Br)cc2c1-c1ccccc1
system under test: NCI-H522
endpoint: log10(GI50)
numeric readout: 2.33
//
mol: COc1ccc(/C=N/NC(=O)c2[nH]c3ccc(Br)cc3c2-c2ccccc2)s1
system under test: NCI-H522
endpoint: log10(GI50)
numeric readout: 1.29
//
mol: O=C(N/N=C/c1ccc([N+](=O)[O-])s1)c1[nH]c2ccc(Br)cc2c1-c1ccccc1
system under test: NCI-H522
endpoint: log10(GI50)
numeric readout: 1.67
//
mol: O=C(N/N=C/c1ccco1)c1[nH]c2ccc(Br)cc2c1-c1ccccc1
system under test: NCI-H522
endpoint: log10(GI50)
numeric readout: 1.38
//
mol: COc1ccc(/C=N/NC(=O)c2[nH]c3ccc(Br)cc3c2-c2ccccc2)o1
system under test: NCI-H522
endpoint: log10(GI50)
numeric readout: 1.26
//
mol: N#Cc1ccc(/C=N/NC(=O)c2[nH]c3ccc(Br)cc3c2-c2ccccc2)s1
system under test: NCI-H522
endpoint: log10(GI50)
numeric readout: 1.36
//
mol: O=C(N/N=C/c1ccc([N+](=O)[O-])o1)c1[nH]c2ccc(Br)cc2c1-c1ccccc1
system under test: NCI-H522
endpoint: log10(GI50)
numeric readout: 1.57

###

System: OVCAR-8
procedure details: Growth inhibition of human OVCAR-8 cells measured after 48 hrs by sulforhodamine B assay
Format: functional
condition context: read-out: LC50 (the source's name)
endpoint: CC50

mol: N#Cc1ccc(/C=N/NC(=O)c2[nH]c3ccc(Br)cc3c2-c2ccccc2)o1
endpoint: CC50
result: > 100 µM

mol: COc1ccc(/C=N/NC(=O)c2[nH]c3ccc(Br)cc3c2-c2ccccc2)o1
endpoint: CC50
result: > 100 µM

mol: O=C(N/N=C/c1ccc([N+](=O)[O-])o1)c1[nH]c2ccc(Br)cc2c1-c1ccccc1
endpoint: CC50
result: 4.19 µM

mol: O=C(N/N=C/c1ccco1)c1[nH]c2ccc(Br)cc2c1-c1ccccc1
endpoint: CC50
result: > 100 µM

###

System: MDA-MB-435
procedure details: Growth inhibition of human MDA-MB-435 cells measured after 48 hrs by sulforhodamine B assay
Assay type: functional

mol: O=C(N/N=C/c1ccsc1)c1[nH]c2ccc(Br)cc2c1-c1ccccc1
qualifier symbol: =
GI50 [nM]: 78.9
--
mol: O=C(N/N=C/c1ccc([N+](=O)[O-])o1)c1[nH]c2ccc(Br)cc2c1-c1ccccc1
qualifier symbol: =
GI50 [nM]: 80.8
--
mol: COc1ccc(/C=N/NC(=O)c2[nH]c3ccc(Br)cc3c2-c2ccccc2)o1
qualifier symbol: =
GI50 [nM]: 77.5
--
mol: COc1ccsc1/C=N/NC(=O)c1[nH]c2ccc(Br)cc2c1-c1ccccc1
qualifier symbol: =
GI50 [nM]: 240
--
mol: O=C(N/N=C/c1ccc(B(O)O)s1)c1[nH]c2ccc(Br)cc2c1-c1ccccc1
qualifier symbol: >
GI50 [nM]: 100
--
mol: O=C(N/N=C/c1ccco1)c1[nH]c2ccc(Br)cc2c1-c1ccccc1
qualifier symbol: =
GI50 [nM]: 34
--
mol: COc1csc(/C=N/NC(=O)c2[nH]c3ccc(Br)cc3c2-c2ccccc2)c1
qualifier symbol: =
GI50 [nM]: 19.1
--
mol: COc1ccc(/C=N/NC(=O)c2[nH]c3ccc(Br)cc3c2-c2ccccc2)s1
qualifier symbol: =
GI50 [nM]: 25.3
--
mol: N#Cc1ccc(/C=N/NC(=O)c2[nH]c3ccc(Br)cc3c2-c2ccccc2)o1
qualifier symbol: =
GI50 [nM]: 186
--
mol: N#Cc1ccc(/C=N/NC(=O)c2[nH]c3ccc(Br)cc3c2-c2ccccc2)s1
qualifier symbol: =
GI50 [nM]: 36
--
mol: O=C(N/N=C/c1ccc([N+](=O)[O-])s1)c1[nH]c2ccc(Br)cc2c1-c1ccccc1
qualifier symbol: =
GI50 [nM]: 181
